- testTarget: Bem1-1, P29366
- Sequence (P29366 55-141): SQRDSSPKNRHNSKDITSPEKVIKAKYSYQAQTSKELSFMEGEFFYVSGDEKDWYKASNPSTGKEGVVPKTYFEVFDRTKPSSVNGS
- procedureSummary: SPOT array
- assayContext: median of control spots 4282
reportedMetric: SPOT intensity

[[record]]
binder = "NNNKMRPHLPPLSSG"
reportedmetric = "SPOT intensity"
recordedvalue = 1


I = EVTPKVPERPSRRKT
II = TKHKAPPPPPPTAET
Hi, I'm comparing two records. Which one has the lower SPOT intensity, I or II ? Reply with the label of the item you choose.
I
